# Test system: PAO1 mutant MIN16_1, nalD(T43P)
# Assay comment: MIC, Sensititre custom plate
# Format: cell-based
# Condition context: Pseudomonas aeruginosa, PAO1, read-out: MIC, Sensititre
Assay metric: MIC (µg/mL)
Answers are plain numbers, in µg/mL.

A selection of reference data follows.
CO/N=C(\C(=O)N[C@@H]1C(=O)N2C(C(=O)[O-])=C(C[N+]3(C)CCCC3)CS[C@H]12)c1csc(N)n1 [Cefepime, cefepime]: 4
C[C@H]1[C@H](NC(=O)/C(=N\OC(C)(C)C(=O)O)c2csc(N)n2)C(=O)N1S(=O)(=O)O: 16
CC(C)(O/N=C(\C(=O)N[C@@H]1C(=O)N2C(C(=O)[O-])=C(C[n+]3ccccc3)CS[C@H]12)c1csc(N)n1)C(=O)O: 4

// moving on: another record for MIC
Find the measured MIC of `NC[C@H]1O[C@H](O[C@H]2[C@H](O)[C@@H](O[C@H]3O[C@H](CO)[C@@H](O)[C@H](N)[C@H]3O)[C@H](N)C[C@@H]2N)[C@H](N)C[C@@H]1O` and report it. 0.5
